system: antibodies in sera from SARS patients (sera 1a, 1b, 2, 6, 37, 62, London, SARS-yellow, SARS-green); type: binding, human
REPORTED PROPERTY: Binding of serum SARS-yellow to looped/cyclic peptides of protein N of SARS-CoV Urbani
Enter a number only.

Given the entry NVTQAFGRRGPEQTQ , report its measured Binding of serum SARS-yellow to looped/cyclic peptides of protein N of SARS-CoV Urbani.
0.3

Given the entry FGGPTDSTDNNQNGG , report its measured Binding of serum SARS-yellow to looped/cyclic peptides of protein N of SARS-CoV Urbani.
0.1

Given the entry QGNFGDQDLIRQGTD , report its measured Binding of serum SARS-yellow to looped/cyclic peptides of protein N of SARS-CoV Urbani.
0.6

Given the entry QRRPQGLPNNTASWF , report its measured Binding of serum SARS-yellow to looped/cyclic peptides of protein N of SARS-CoV Urbani.
0.6

Given the entry QGTDYKHWPQIAQFA , report its measured Binding of serum SARS-yellow to looped/cyclic peptides of protein N of SARS-CoV Urbani.
0.7

Given the entry PQSNQRSAPRITFGG , report its measured Binding of serum SARS-yellow to looped/cyclic peptides of protein N of SARS-CoV Urbani.
0.6

Given the entry RGPEQTQGNFGDQDL , report its measured Binding of serum SARS-yellow to looped/cyclic peptides of protein N of SARS-CoV Urbani.
0.6

Given the entry GETALALLLLDRLNQ , report its measured Binding of serum SARS-yellow to looped/cyclic peptides of protein N of SARS-CoV Urbani.
0.6

Given the entry TRRVRGGDGKMKELS , report its measured Binding of serum SARS-yellow to looped/cyclic peptides of protein N of SARS-CoV Urbani.
0.2

Given the entry YKTFPPTEPKKDKKK , report its measured Binding of serum SARS-yellow to looped/cyclic peptides of protein N of SARS-CoV Urbani.
0.2

Given the entry PKKDKKKKTDEAQPL , report its measured Binding of serum SARS-yellow to looped/cyclic peptides of protein N of SARS-CoV Urbani.
0.2

Given the entry NSGPDDQIGYYRRAT , report its measured Binding of serum SARS-yellow to looped/cyclic peptides of protein N of SARS-CoV Urbani.
0.6

Given the entry LNTPKDHIGTRNPNN , report its measured Binding of serum SARS-yellow to looped/cyclic peptides of protein N of SARS-CoV Urbani.
0.4

Given the entry FYAEGSRGGSQASSR , report its measured Binding of serum SARS-yellow to looped/cyclic peptides of protein N of SARS-CoV Urbani.
0.3

Given the entry GPTDSTDNNQNGGRN , report its measured Binding of serum SARS-yellow to looped/cyclic peptides of protein N of SARS-CoV Urbani.
0.4

Given the entry ESKVSGKGQQQQGQT , report its measured Binding of serum SARS-yellow to looped/cyclic peptides of protein N of SARS-CoV Urbani.
0.9

Given the entry KGFYAEGSRGGSQAS , report its measured Binding of serum SARS-yellow to looped/cyclic peptides of protein N of SARS-CoV Urbani.
0.1

Given the entry DMDDFSRQLQNSMSG , report its measured Binding of serum SARS-yellow to looped/cyclic peptides of protein N of SARS-CoV Urbani.
0.2

Given the entry LRFPRGQGVPINTNS , report its measured Binding of serum SARS-yellow to looped/cyclic peptides of protein N of SARS-CoV Urbani.
0.4

Given the entry ELSPRWYFYYLGTGP , report its measured Binding of serum SARS-yellow to looped/cyclic peptides of protein N of SARS-CoV Urbani.
0.5

Given the entry NTASWFTALTQHGKE , report its measured Binding of serum SARS-yellow to looped/cyclic peptides of protein N of SARS-CoV Urbani.
0.3

Given the entry PINTNSGPDDQIGYY , report its measured Binding of serum SARS-yellow to looped/cyclic peptides of protein N of SARS-CoV Urbani.
0.5

Given the entry RGGSQASSRSSSRSR , report its measured Binding of serum SARS-yellow to looped/cyclic peptides of protein N of SARS-CoV Urbani.
0.3

Given the entry GQTVTKKSAAEASKK , report its measured Binding of serum SARS-yellow to looped/cyclic peptides of protein N of SARS-CoV Urbani.
0.2

Given the entry KTFPPTEPKKDKKKK , report its measured Binding of serum SARS-yellow to looped/cyclic peptides of protein N of SARS-CoV Urbani.
0.2

Given the entry NTPKDHIGTRNPNNN , report its measured Binding of serum SARS-yellow to looped/cyclic peptides of protein N of SARS-CoV Urbani.
0.4

Given the entry SRQLQNSMSGASADS , report its measured Binding of serum SARS-yellow to looped/cyclic peptides of protein N of SARS-CoV Urbani.
0.2

Given the entry RGQGVPINTNSGPDD , report its measured Binding of serum SARS-yellow to looped/cyclic peptides of protein N of SARS-CoV Urbani.
0.0

Given the entry ARPKQRRPQGLPNNT , report its measured Binding of serum SARS-yellow to looped/cyclic peptides of protein N of SARS-CoV Urbani.
0.2

Given the entry DKKKKTDEAQPLPQR , report its measured Binding of serum SARS-yellow to looped/cyclic peptides of protein N of SARS-CoV Urbani.
0.3

Given the entry ATKQYNVTQAFGRRG , report its measured Binding of serum SARS-yellow to looped/cyclic peptides of protein N of SARS-CoV Urbani.
0.8

Given the entry DYKHWPQIAQFAPSA , report its measured Binding of serum SARS-yellow to looped/cyclic peptides of protein N of SARS-CoV Urbani.
0.7

Given the entry QQGQTVTKKSAAEAS , report its measured Binding of serum SARS-yellow to looped/cyclic peptides of protein N of SARS-CoV Urbani.
0.5

Given the entry EPKKDKKKKTDEAQP , report its measured Binding of serum SARS-yellow to looped/cyclic peptides of protein N of SARS-CoV Urbani.
0.1

Given the entry KDNVILLNKHIDAYK , report its measured Binding of serum SARS-yellow to looped/cyclic peptides of protein N of SARS-CoV Urbani.
0.4

Given the entry RLNQLESKVSGKGQQ , report its measured Binding of serum SARS-yellow to looped/cyclic peptides of protein N of SARS-CoV Urbani.
0.8

Given the entry LIRQGTDYKHWPQIA , report its measured Binding of serum SARS-yellow to looped/cyclic peptides of protein N of SARS-CoV Urbani.
1.1

Given the entry TQAFGRRGPEQTQGN , report its measured Binding of serum SARS-yellow to looped/cyclic peptides of protein N of SARS-CoV Urbani.
0.2

Given the entry ETALALLLLDRLNQL , report its measured Binding of serum SARS-yellow to looped/cyclic peptides of protein N of SARS-CoV Urbani.
0.5

Given the entry DFSRQLQNSMSGASA , report its measured Binding of serum SARS-yellow to looped/cyclic peptides of protein N of SARS-CoV Urbani.
0.2

Given the entry PKGFYAEGSRGGSQA , report its measured Binding of serum SARS-yellow to looped/cyclic peptides of protein N of SARS-CoV Urbani.
0.2

Given the entry SAPRITFGGPTDSTD , report its measured Binding of serum SARS-yellow to looped/cyclic peptides of protein N of SARS-CoV Urbani.
0.4

Given the entry GALNTPKDHIGTRNP , report its measured Binding of serum SARS-yellow to looped/cyclic peptides of protein N of SARS-CoV Urbani.
0.2

Given the entry QASSRSSSRSRGNSR , report its measured Binding of serum SARS-yellow to looped/cyclic peptides of protein N of SARS-CoV Urbani.
0.4

Given the entry QTQGNFGDQDLIRQG , report its measured Binding of serum SARS-yellow to looped/cyclic peptides of protein N of SARS-CoV Urbani.
0.8

Given the entry NKHIDAYKTFPPTEP , report its measured Binding of serum SARS-yellow to looped/cyclic peptides of protein N of SARS-CoV Urbani.
0.2

Given the entry SRGNSPARMASGGGE , report its measured Binding of serum SARS-yellow to looped/cyclic peptides of protein N of SARS-CoV Urbani.
0.1

Given the entry EELRFPRGQGVPINT , report its measured Binding of serum SARS-yellow to looped/cyclic peptides of protein N of SARS-CoV Urbani.
0.8

Given the entry SQASSRSSSRSRGNS , report its measured Binding of serum SARS-yellow to looped/cyclic peptides of protein N of SARS-CoV Urbani.
0.3

Given the entry TASWFTALTQHGKEE , report its measured Binding of serum SARS-yellow to looped/cyclic peptides of protein N of SARS-CoV Urbani.
0.2

Given the entry RPKQRRPQGLPNNTA , report its measured Binding of serum SARS-yellow to looped/cyclic peptides of protein N of SARS-CoV Urbani.
0.3

Given the entry MDDFSRQLQNSMSGA , report its measured Binding of serum SARS-yellow to looped/cyclic peptides of protein N of SARS-CoV Urbani.
0.2

Given the entry APRITFGGPTDSTDN , report its measured Binding of serum SARS-yellow to looped/cyclic peptides of protein N of SARS-CoV Urbani.
0.4

Given the entry AQPLPQRQKKQPTVT , report its measured Binding of serum SARS-yellow to looped/cyclic peptides of protein N of SARS-CoV Urbani.
0.2
